readout: melting point

Quick one: melting point of "O=C(O)c1ccc(CN([C@@H](CO)c2ccccc2)S(=O)(=O)c2ccc(Cl)cc2)cc1" ?
85 to 87 °C

So what does the record say about melting point for "CC[C@H](c1ccc(C(F)(F)F)cc1)N(Cc1ccc(C(=O)OC)cc1)S(=O)(=O)c1ccc(Cl)cc1" ?
120 to 121 °C

What does the data say about its melting point? Entry: CCC(c1ccccc1)N(Cc1ccc(C(=O)OC)cc1)S(=O)(=O)c1ccc(Cl)cc1 (stereo not shown)
105 to 107 °C

Fill in: melting point of CCC(c1ccc(F)cc1)N(Cc1ccc(C(=O)OC)cc1)S(=O)(=O)c1ccc(Cl)cc1 (stereo not shown) is ___
95 to 97 °C

Quick one: melting point of "CC(C)N(Cc1ccc(Cl)c(Cl)c1)S(=O)(=O)c1ccc(Cl)s1" ?
66 to 67 °C

Looking for the measured melting point of "CC[C@@H](c1ccccc1)N(Cc1ccc(C(=O)NC[C@H](C)O)cc1)S(=O)(=O)c1ccc(Cl)cc1" , can you help?
78 to 80 °C

Dear colleague, I am looking for the recorded melting point of the following molecule: "COC(=O)c1ccc(CN(C(CF)CF)S(=O)(=O)c2ccc(F)cc2)cc1"
103 to 105 °C

Would you kindly share the measured melting point for "COC(=O)c1ccc(CN([C@@H](CO)c2ccccc2)S(=O)(=O)c2ccc(Cl)cc2)cc1" ?
104 to 106 °C

Which melting point is listed for "CC[C@@H](c1ccccc1)N(Cc1ccc(C(=O)NCC(=O)O)cc1)S(=O)(=O)c1ccc(Cl)cc1" ?
136 to 139 °C

I would be grateful if you could share the reported melting point for "CCC(CC)N(Cc1ccc(C#N)cc1)S(=O)(=O)c1ccc(Cl)cc1" .
123 to 125 °C

I would be grateful if you could share the reported melting point for "CC(C)N(Cc1ccc(Cl)c(Cl)c1)S(=O)(=O)c1cc2ccccc2s1" .
133 to 135 °C

// lookup melting point for "COC(=O)c1ccc(CN([C@@H](CO)Cc2ccccc2)S(=O)(=O)c2ccc(Cl)cc2)cc1"
128 to 130 °C

Which melting point value is on record for "CC[C@@H](c1ccc(C(F)(F)F)cc1)N(Cc1ccc(C(=O)O)cc1)S(=O)(=O)c1ccc(Cl)cc1" ?
101 to 103 °C
